Measured inhibition, listed per entry.
test: BT084 cell growth, single and combined drugs, ICGC_MB145, cisplatin and BGB IC40 combos (AID 1671461); conditions: BT084 medulloblastoma cells, drug combinations, at 0.5 µM, stronger effect = higher value;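 further: cells exposed to drugs for 96 hours; 0% = vehicle DMSO and 100% = high DMSO full killing control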
quantity_name: inhibition (%)

Nc1ccccc1NC(=O)c1cnccn1
-7.12
COc1ccc(-c2nc(-c3cc(C(F)(F)F)cc(C(F)(F)F)c3)n(Cc3ccc(C(N)=O)cc3)c2-c2ccc(OC)cc2)cc1
-7.83
CC1CN(c2c(F)c(N)c3c(=O)c(C(=O)O)cn(C4CC4)c3c2F)CC(C)N1 (stereo unspecified)
-22.6
O=c1[nH]c(=S)[nH]c2nc(-c3ccccc3)c(-c3ccccc3)nc12
-2.6
CON=C1CN(c2nc3c(cc2F)c(=O)c(C(=O)O)cn3C2CC2)CC1CN (stereo unspecified)
-10.5
O=c1[nH]c(=O)n(C2CC(O)C(CO)O2)cc1I (stereo unspecified)
-4.3
